Experiment: Resistance to degradation by human neutral endopeptidase
Type: in vitro ADME
Conditions: isolated enzyme neprilysin; 50 μM concentration of human neutral endopeptidase; two hours; read-out: percent of construct remained after incubation for two hours
Bridge positions count the residues as written; N and C are the ends. Square brackets hold non-standard residues; d marks the D form. Peptide text beside a SMILES is read from it. * marks the point of attachment. X1 = N=C(N)NCCC[C@H]1C(=O)N[C@@H](C(N)=O)CN1*; dNle = CCCC[C@@H](N)C(=O)O; Heptanoyl = CCCCCCC(=O)*; Dab = NCC[C@H](N)C(=O)O
parameter.measured: remaining at 2 h (%)
# value in %; strip the unit string

# lookup: remaining at 2 h of CCCCCCC(=O)N[C@H]1CC(=O)NCC[C@@H](C(=O)N[C@@H](Cc2ccc(O)cc2)C(=O)N2C[C@H](C(N)=O)NC(=O)[C@@H]2CCCNC(=N)N)NC(=O)[C@H](CO)NC(=O)[C@H]([C@@H](C)CC)NC(=O)[C@H](CCCNC(=N)N)NC(=O)[C@H](CC(=O)O)NC(=O)[C@@H](CCCC)NC(=O)[C@H](CCCNC(=N)N)NC(=O)CNC(=O)[C@@H](C)NC(=O)[C@H](Cc2ccccc2)NC(=O)[C@H](Cc2c[nH]cn2)NC1=O [4-138] (Heptanoyl-DHF[dA]GR[dNle]DRIS[Dab]Y-X1; lactam 1-12)
89

Query CCCCCCC(=O)NCC[C@@H]1NC(=O)CC[C@@H](C(=O)N[C@@H](Cc2ccc(O)cc2)C(=O)N2C[C@H](C(N)=O)NC(=O)[C@@H]2CCCNC(=N)N)NC(=O)[C@H](CO)NC(=O)[C@H]([C@@H](C)CC)NC(=O)[C@H](CCCNC(=N)N)NC(=O)[C@H](CC(=O)O)NC(=O)[C@@H](CCCC)NC(=O)[C@H](CCCNC(=N)N)NC(=O)CNC(=O)[C@@H](C)NC(=O)[C@H](Cc2ccccc2)NC(=O)[C@H](Cc2c[nH]cn2)NC1=O [3-75] ([Dab](Heptanoyl)HF[dA]GR[dNle]DRISEY-X1; lactam N-12) next
97

Query CCCC[C@H]1NC(=O)[C@H](CCCNC(=N)N)NC(=O)CNC(=O)[C@@H](C)NC(=O)[C@H](Cc2ccccc2)NC(=O)[C@H](Cc2c[nH]cn2)NC(=O)[C@@H](NC(=O)[C@@H](C)N)CCC(=O)NCC[C@@H](C(=O)N[C@@H](Cc2ccc(O)cc2)C(=O)N2C[C@H](C(N)=O)NC(=O)[C@@H]2CCCNC(=N)N)NC(=O)[C@H](CO)NC(=O)[C@H]([C@@H](C)CC)NC(=O)[C@H](CCCNC(=N)N)NC(=O)[C@H](CC(=O)O)NC1=O [4-90] (H-[dA]EHF[dA]GR[dNle]DRIS[Dab]Y-X1; lactam 2-13) next
95
